The following compounds were reported with pKi values on Aurora kinase A (Homo sapiens) in different studies.
pKi: −log10 of the molar value.

Look up pKi with Aurora kinase A (Homo sapiens) for this compound: CC(C)n1cc(Nc2ncc(Cl)c(N[C@H]3[C@@H](C(N)=O)[C@@H]4C=C[C@H]3C4)n2)cn1
> 7.00

Look up pKi with Aurora kinase A (Homo sapiens) for this compound: CC(C)CCn1cc(Nc2ncc(Cl)c(N[C@H]3[C@@H](C(N)=O)[C@@H]4C=C[C@H]3C4)n2)cn1
> 7.00

Look up pKi with Aurora kinase A (Homo sapiens) for this compound: CC(C)(O)C#Cc1cnc2c(-c3ccccn3)c(N)nn2c1
5.30 to 6.30

Look up pKi with Aurora kinase A (Homo sapiens) for this compound: Nc1nn2cc(-c3ccc4[nH]ccc4c3)cnc2c1-c1ccccn1
> 6.30

Look up pKi with Aurora kinase A (Homo sapiens) for this compound: CSc1cc(-c2c(N)nn3cc(C)cnc23)ncn1
5.30 to 6.30

Look up pKi with Aurora kinase A (Homo sapiens) for this compound: COc1cccc(CCn2cc(Nc3ncc(Br)c(N[C@H]4[C@@H](C(N)=O)[C@@H]5C=C[C@H]4C5)n3)cn2)c1
> 7.00

Look up pKi with Aurora kinase A (Homo sapiens) for this compound: Cn1cc(Nc2ncc(Cl)c(N[C@@H]3CCC[C@@H]3C(N)=O)n2)cn1.Cn1cc(Nc2ncc(Cl)c(N[C@H]3CCC[C@H]3C(N)=O)n2)cn1 (mixture of isomers)
> 7.00

Look up pKi with Aurora kinase A (Homo sapiens) for this compound: Cc1cc(Nc2cc(N3CC[C@H](N(C)C)C3)nc(Sc3ccc(NC(=O)c4ccccc4C(F)(F)F)cc3)n2)[nH]n1
≥ 8.00

Look up pKi with Aurora kinase A (Homo sapiens) for this compound: c1ccc(-c2nc(Nc3cc(C4CC4)n[nH]3)c3ccccc3n2)cc1
> 7.00

Look up pKi with Aurora kinase A (Homo sapiens) for this compound: Cc1cnc2c(-c3cc(NCC4CCCO4)ncn3)c(N)nn2c1 (stereo not drawn)
5.30 to 6.30

Look up pKi with Aurora kinase A (Homo sapiens) for this compound: Fc1cc(F)c2n[nH]c(Nc3nc(-c4ccccc4)nc4c3CCCC4)c2c1
4.70 to 6.00

Look up pKi with Aurora kinase A (Homo sapiens) for this compound: CCC(=O)Nc1ccc(Sc2nc(Nc3cc(C)n[nH]3)cc(N3CCC(OC(C)(C)C)CC3)n2)cc1
≥ 8.00

Look up pKi with Aurora kinase A (Homo sapiens) for this compound: FC(F)(F)c1ccccc1-c1nc(Nc2n[nH]c3ncccc23)c2ccccc2n1
6.00 to 7.00

Look up pKi with Aurora kinase A (Homo sapiens) for this compound: Cc1cc(Nc2nc(-c3cccc(Oc4ccccc4)c3)nc3ccccc23)[nH]n1
> 7.00

Look up pKi with Aurora kinase A (Homo sapiens) for this compound: NC(=O)[C@@H]1[C@H](Nc2nc(Nc3cnn(CC4CCO4)c3)ncc2Cl)[C@H]2C=C[C@@H]1C2 (stereo partly drawn)
> 7.00

Look up pKi with Aurora kinase A (Homo sapiens) for this compound: Cc1cc(Nc2nc(Sc3ccc(N)cc3)nc3ccccc23)n[nH]1
> 7.00

Look up pKi with Aurora kinase A (Homo sapiens) for this compound: Cn1cc(Nc2ncc(Cl)c(N[C@@H]3[C@H]4CC[C@H](C4)[C@@H]3C(N)=O)n2)cn1.Cn1cc(Nc2ncc(Cl)c(N[C@H]3[C@@H]4CC[C@@H](C4)[C@H]3C(N)=O)n2)cn1 (mixture of isomers)
> 7.00

Look up pKi with Aurora kinase A (Homo sapiens) for this compound: Cn1cc(Nc2ncc(Cl)c(Nc3ccccc3C3(O)CCC3)n2)cn1
> 7.00

Look up pKi with Aurora kinase A (Homo sapiens) for this compound: Cc1c(-c2ccnc(Nc3cccc([N+](=O)[O-])c3)n2)sc(=O)n1C
6.15

Look up pKi with Aurora kinase A (Homo sapiens) for this compound: Cc1cccc(Sc2nc(Nc3cc(C4CC4)[nH]n3)c3ccccc3n2)c1
> 7.00

Look up pKi with Aurora kinase A (Homo sapiens) for this compound: Cn1cc(Nc2ncc(Br)c(N[C@@H]3[C@H](C(N)=O)[C@H]4C=C[C@@H]3C4)n2)cn1.Cn1cc(Nc2ncc(Br)c(N[C@H]3[C@@H](C(N)=O)[C@@H]4C=C[C@H]3C4)n2)cn1 (mixture of isomers)
> 7.00

Look up pKi with Aurora kinase A (Homo sapiens) for this compound: Cc1cc(Nc2nc(Nc3ccc(C)c(C)c3)nc3ccccc23)n[nH]1
> 7.00

Look up pKi with Aurora kinase A (Homo sapiens) for this compound: CCN(C)C(=O)c1cccc(-c2cnc3c(-c4ccccn4)c(N)nn3c2)n1
5.30 to 6.30

Look up pKi with Aurora kinase A (Homo sapiens) for this compound: NC(=O)[C@@H]1[C@H](Nc2nc(Nc3cnn(CCO)c3)ncc2F)[C@H]2C=C[C@@H]1C2.NC(=O)[C@H]1[C@@H](Nc2nc(Nc3cnn(CCO)c3)ncc2F)[C@@H]2C=C[C@H]1C2 (mixture of isomers)
> 7.00

Look up pKi with Aurora kinase A (Homo sapiens) for this compound: Cc1cc(Nc2nc(-c3ccc(N(C)C)cc3)nc3ccccc23)[nH]n1
> 7.00

Look up pKi with Aurora kinase A (Homo sapiens) for this compound: N#Cc1cn[nH]c1Nc1nc(-c2ccccc2)nc2ccccc12
4.70 to 6.00

Look up pKi with Aurora kinase A (Homo sapiens) for this compound: O=[N+]([O-])c1ccc2[nH]nc(Nc3nc(-c4ccccc4C(F)(F)F)nc4ccccc34)c2c1
6.00 to 7.00

Look up pKi with Aurora kinase A (Homo sapiens) for this compound: Cc1nn(C)cc1Nc1ncc(Cl)c(N[C@H]2[C@@H](C(N)=O)[C@@H]3C=C[C@H]2C3)n1
> 7.00

Look up pKi with Aurora kinase A (Homo sapiens) for this compound: Cc1cc(Nc2cc(N3CC[C@H](F)C3)cc(Sc3ccc(NC(=O)C4CC4)cc3)n2)[nH]n1
> 7.00

Look up pKi with Aurora kinase A (Homo sapiens) for this compound: Cc1cc(Nc2cc(-c3ccccc3)c(C#N)c(NCCOc3ccccc3)n2)n[nH]1
7.72
